biological target: beta-glucuronidase (Escherichia coli, UniProt P05804); construct: purchased Sigma Chemical Co; test: Semiquantitative assay of beta-glucuronidase (4-MUG to fluorescent 4-MU); format: biochemical, E. coli; parameters: key: + indicates enzyme inhibition; - indicates no enzyme inhibition; details: test inhibitor at 0.1 mM to 100 mM, 37° C., Tris pH 7, fluorescence by UV lamp
Sequence (P05804 whole entry): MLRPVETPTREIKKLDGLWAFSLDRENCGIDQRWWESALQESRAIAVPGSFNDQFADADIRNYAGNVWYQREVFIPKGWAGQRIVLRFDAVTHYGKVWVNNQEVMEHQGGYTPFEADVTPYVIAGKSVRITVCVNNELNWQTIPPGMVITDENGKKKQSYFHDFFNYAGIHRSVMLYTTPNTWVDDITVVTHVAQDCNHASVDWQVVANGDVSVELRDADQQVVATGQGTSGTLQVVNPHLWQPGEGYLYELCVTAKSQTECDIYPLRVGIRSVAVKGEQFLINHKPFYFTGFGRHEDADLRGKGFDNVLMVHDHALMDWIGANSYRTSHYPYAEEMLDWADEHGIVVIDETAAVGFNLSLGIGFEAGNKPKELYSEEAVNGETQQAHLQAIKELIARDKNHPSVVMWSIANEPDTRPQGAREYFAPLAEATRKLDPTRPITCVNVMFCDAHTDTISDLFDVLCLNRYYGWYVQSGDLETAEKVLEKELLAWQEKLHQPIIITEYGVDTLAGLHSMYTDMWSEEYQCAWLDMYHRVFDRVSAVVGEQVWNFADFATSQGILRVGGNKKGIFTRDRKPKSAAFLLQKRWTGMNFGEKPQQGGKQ
ATTRIBUTE MEASURED: inhibition of BETA-G

N[C@H]1C(O)O[C@H](CO)[C@H](O)[C@@H]1O (stereo partly shown) [Galactosamine, galactosamine] | -
O=S(=O)([O-])[O-].[Na+].[Na+] [Sodium sulfate] | +
O=P1([O-])OP(=O)([O-])OP(=O)([O-])OP(=O)([O-])OP(=O)([O-])OP(=O)([O-])O1.[Na+].[Na+].[Na+].[Na+].[Na+].[Na+] [hexametaphosphate, Sodium hexametaphosphate] | +
[Zn+2] [Zn++] | +
